Provide the recorded Mean IC50 (Curve), RSV microneutralization for the entries that follow.
- ASSAYED_SYSTEM: F protein of wild type RSV A/Long (respiratory syncytial virus strain …, UniProt P12568 26-574)
- Sequence (P12568 26-574): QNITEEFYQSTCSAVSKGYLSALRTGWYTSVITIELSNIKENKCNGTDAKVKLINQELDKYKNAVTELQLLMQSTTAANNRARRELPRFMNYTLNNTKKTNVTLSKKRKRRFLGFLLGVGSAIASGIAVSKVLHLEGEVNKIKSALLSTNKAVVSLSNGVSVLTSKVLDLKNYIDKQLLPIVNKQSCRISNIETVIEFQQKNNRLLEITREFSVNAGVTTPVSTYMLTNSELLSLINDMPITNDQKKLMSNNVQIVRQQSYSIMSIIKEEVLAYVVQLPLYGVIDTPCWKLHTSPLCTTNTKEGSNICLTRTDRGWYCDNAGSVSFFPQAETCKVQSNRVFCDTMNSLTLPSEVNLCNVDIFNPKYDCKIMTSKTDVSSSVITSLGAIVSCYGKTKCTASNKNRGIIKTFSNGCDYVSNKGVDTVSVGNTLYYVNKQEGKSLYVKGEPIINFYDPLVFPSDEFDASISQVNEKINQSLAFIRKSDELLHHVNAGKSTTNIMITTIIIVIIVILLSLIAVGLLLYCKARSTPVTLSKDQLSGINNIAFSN
- METHOD_SUMMARY: cell-based or functional assay
Answers are plain numbers, in mg/L.

Take a look at these entries with their results.
• A12a6 (Fab fragment) (Fab, V domains shown, Fab) VH: QVTLRESGPALVKPTQTLTLTCTFSGFSLSTAGMSVGWIRQPPGKALEWLADIWWDGKKDYNPSLKDRLTISKDTSKNQVVLKVTNMDPADTATYYCARDMIFNFYFDVWGQGTTVTVSS VL: DIQMTQSPSTLSASVGDRVTITCSASSRVGYMHWYQQKPGKAPKLLIYDTFKLSSGVPSRFSGSGSGTEFTLTISSLQPDDFATYYCFQGSGYPFTFGGGTKVEIK = 0.0287
• A17d4 (Fab fragment) (Fab, V domains shown) VH: QVTLRESGPALVKPTQTLTLTCTFSGFSLSTAGMSVGWIRQPPGKALEWLADIWWDGKKSYNPSLKDRLTISKDTSKNQVVLKVTNMDPADTATYYCARDMIFNFYFDVWGQGTTVTVSS VL: DIQMTQSPSTLSASVGDRVTITCLPSSRVGYMHWYQQKPGKAPKLLIYDTMYQASGVPSRFSGSGSGTEFTLTISSLQPDDFATYYCFQFSGYPFTFGGGTKLEIK = 0.0179

Quick one: give me Mean IC50 (Curve), RSV microneutralization for each item below, same order please.
1. A8c7 (monoclonal antibody) (antibody, V domains shown, mAb with framework and constant regions of SYNAGIS) VH: QVTLRESGPALVKPTQTLTLTCTFSGFSLSTAGMSVGWIRQPPGKALEWLADIWWDDKKSYNPSLKDRLTISKDTSKNQVVLKVTNMDPADTATYYCARDMIFNWYFDVWGQGTTVTVSS VL: DIQMTQSPSTLSASVGDRVTITCSASSRVGYMHWYQQKPGKAPKLLIYDTRYQSSGVPSRFSGSGSGTEFTLTISSLQPDDFATYYCFQGSGYPFTFGGGTKLEIK
2. P11d4 (monoclonal antibody) (antibody, V domains shown, mAb with framework and constant regions of SYNAGIS) VH: QVTLRESGPALVKPTQTLTLTCTFSGFSLSTPGMSVGWIRQPPGKALEWLADIWWDGKKHYNPSLKDRLTISKDTSKNQVVLKVTNMDPADTATYYCARDMIFNWYFDVWGQGTTVTVSS VL: DIQMTQSPSTLSASVGDRVTITCSPSSRVGYMHWYQQKPGKAPKLLIYDTMRLASGVPSRFSGSGSGTEFTLTISSLQPDDFATYYCFQGSGYPFTFGGGTKVEIK
3. SYNAGIS® (monoclonal antibody) (antibody, V domains shown, also called SYNAGIS ®/SYNAGIS ® (HC/LC)) VH: QVTLRESGPALVKPTQTLTLTCTFSGFSLSTSGMSVGWIRQPPGKALEWLADIWWDDKKDYNPSLKSRLTISKDTSKNQVVLKVTNMDPADTATYYCARSMITNWYFDVWGAGTTVTVSS VL: DIQMTQSPSTLSASVGDRVTITCKCQLSVGYMHWYQQKPGKAPKLLIYDTSKLASGVPSRFSGSGSGTEFTLTISSLQPDDFATYYCFQGSGYPFTFGGGTKLEIK
4. P12f2 (Fab fragment) (Fab, V domains shown, Fab) VH: QVTLRESGPALVKPTQTLTLTCTFSGFSLSTPGMSVGWIRQPPGKALEWLADIWWDDKKHYNPSLKDRLTISKDTSKNQVVLKVTNMDPADTATYYCARDMIFNFYFDVWGAGTTVTVSS VL: DIQMTQSPSTLSASVGDRVTITCSLSSRVGYMHWYQQKPGKAPKLLIYDTFYLSSGVPSRFSGSGSGTEFTLTISSLQPDDFATYYCFQGSGYPFTFGGGTKVEIK
5. A13c4 (monoclonal antibody) (antibody, V domains shown, mAb with framework and constant regions of SYNAGIS) VH: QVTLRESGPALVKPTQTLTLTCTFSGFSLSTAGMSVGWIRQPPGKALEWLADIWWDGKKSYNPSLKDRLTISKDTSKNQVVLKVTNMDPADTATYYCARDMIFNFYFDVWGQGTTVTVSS VL: DIQMTQSPSTLSASVGDRVTITCSLSSRVGYMHWYQQKPGKAPKLLIYDTMYQSSGVPSRFSGSGSGTEFTLTISSLQPDDFATYYCFQGSGYPFTFGGGTKVEIK
6. A8c7 (Fab fragment) (Fab, V domains shown) VH: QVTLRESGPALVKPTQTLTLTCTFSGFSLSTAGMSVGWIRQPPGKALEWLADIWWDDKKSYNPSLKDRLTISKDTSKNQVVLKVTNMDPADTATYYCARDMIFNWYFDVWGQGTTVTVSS VL: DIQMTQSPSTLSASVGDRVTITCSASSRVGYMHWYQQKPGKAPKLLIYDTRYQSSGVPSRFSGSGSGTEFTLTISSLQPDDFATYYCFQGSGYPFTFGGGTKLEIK
7. A13c4 (Fab fragment) (Fab, V domains shown, Fab) VH: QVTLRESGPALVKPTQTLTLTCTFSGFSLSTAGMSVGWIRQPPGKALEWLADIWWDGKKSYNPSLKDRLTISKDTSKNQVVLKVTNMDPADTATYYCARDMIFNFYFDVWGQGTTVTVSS VL: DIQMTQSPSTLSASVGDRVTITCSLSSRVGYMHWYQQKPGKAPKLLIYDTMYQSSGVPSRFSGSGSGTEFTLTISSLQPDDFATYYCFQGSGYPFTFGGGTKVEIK
8. P12f2 (monoclonal antibody) (antibody, V domains shown, mAb with framework and constant regions of SYNAGIS; also called Pf12) VH: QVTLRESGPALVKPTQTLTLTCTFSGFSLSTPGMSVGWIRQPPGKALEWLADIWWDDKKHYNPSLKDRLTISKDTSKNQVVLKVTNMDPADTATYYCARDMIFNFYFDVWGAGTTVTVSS VL: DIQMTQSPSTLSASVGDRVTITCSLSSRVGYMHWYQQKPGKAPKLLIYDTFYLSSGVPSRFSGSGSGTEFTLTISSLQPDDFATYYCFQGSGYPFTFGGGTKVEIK

output:
1: 0.0337; 2: 0.0217; 3: 0.453; 4: 0.0407; 5: 0.0376; 6: 0.177; 7: 0.0264; 8: 0.0231

The reported numbers originate from patent US20030091584A1.
